Tested on: Staphylococcus aureus
Assay: Antimicrobial activity against methicillin-resistant Staphylococcus aureus ATCC 12-1 incubated for 18 to 24 hrs
Format: functional
Listed here: items and their measured MIC.
Could you give me the number in µg/mL? Just the number is fine.

* CO/N=C1\CCN(c2c(F)cc3c(=O)c(C(=O)O)cn(C4CC4)c3c2OC)CC1NC(=O)CN (configuration not stated) | 32

Ask | Checklist item: MIC tested on Staphylococcus aureus, entry CO/N=C1\CCN(c2c(F)cc3c(=O)c(C(=O)O)cn(C4CC4)c3c2OC)CC1NC(=O)[C@@H](N)C(C)C (some centres not stated) , value?
Reply | 64

Ask | Query for Staphylococcus aureus: what MIC does the record show for CO/N=C1\CCN(c2c(F)cc3c(=O)c(C(=O)O)cn(C4CC4)c3c2OC)CC1NC(=O)[C@H](C)N (some centres not stated) ?
Reply | 64

Ask | Missing value: MIC, Staphylococcus aureus, entry CO/N=C1\CCN(c2c(F)cc3c(=O)c(C(=O)O)cn(C4CC4)c3c2OC)CC1NC(=O)[C@H](N)Cc1ccccc1 (some centres not stated) . Fill in?
Reply | 64

Ask | MIC of CO/N=C1\CCN(c2c(F)cc3c(=O)c(C(=O)O)cn(C4CC4)c3c2OC)CC1NC(=O)[C@H]1CCCN1 (some centres not stated) on Staphylococcus aureus?
Reply | 64

Ask | Notebook: pull reported MIC for Staphylococcus aureus, entry CO/N=C1\CCN(c2c(F)cc3c(=O)c(C(=O)O)cn(C4CC4)c3c2OC)CC1NC(=O)[C@H](N)[C@H](C)O (some centres not stated)
Reply | 128

Ask | Checklist item: MIC tested on Staphylococcus aureus, entry CCC(C)[C@H](N)C(=O)NC1CN(c2c(F)cc3c(=O)c(C(=O)O)cn(C4CC4)c3c2OC)CC/C1=N\OC (some centres not stated) , value?
Reply | 64

Ask | # query: MIC | item CO/N=C1\CCN(c2c(F)cc3c(=O)c(C(=O)O)cn(C4CC4)c3c2OC)CC1NC(=O)[C@H](N)CC(C)C (some centres not stated) | system: Staphylococcus aureus
Reply | 64

Ask | // lookup MIC | system=Staphylococcus aureus | key= CO/N=C1\CCN(c2c(F)cc3c(=O)c(C(=O)O)cn(C4CC4)c3c2OC)CC1NC(=O)[C@H](N)CO (some centres not stated)
Reply | 64

---

Test system: Staphylococcus epidermidis
Assay: Antimicrobial activity against methicillin-resistant Staphylococcus epidermidis clinical isolate incubated for 16 hrs by CLSI based agar dilution method
Type: functional
Decide using MIC alone. Strictly below 0.2 µg/mL: criterion met. Equal to or above 0.2 µg/mL: criterion not met.

Here's what some known entries look like.
* COc1c(N2C[C@H]3CCCN(C(O)Cn4cc([N+](=O)[O-])nc4Cl)[C@H]3C2)c(F)cc2c(=O)c(C(=O)O)cn(C3CC3)c12 (stereo partly drawn) | criterion met
* CCn1cc(C(=O)O)c(=O)c2cc(F)c(N3CCN(CC(O)Cn4cc([N+](=O)[O-])nc4Cl)CC3)c(OC)c21 (stereo not drawn) | criterion not met
* COc1c(N2CCN(C(O)Cn3cc([N+](=O)[O-])nc3Cl)CC2)c(F)cc2c(=O)c(C(=O)O)cn(C3CC3)c12 (stereo not drawn) | criterion met
* CCn1cc(C(=O)O)c(=O)c2cc(F)c(N3CCN(CC(O)Cn4cc([N+](=O)[O-])nc4Cl)CC3)nc21 (stereo not drawn) | criterion not met
* COc1c(N2CCN(C[C@H](O)Cn3cc([N+](=O)[O-])nc3C)C(C)C2)c(F)cc2c(=O)c(C(=O)O)cn(C3CC3)c12 (stereo partly drawn) | criterion not met
* COc1c(N2CCN(CC(O)Cn3cc([N+](=O)[O-])nc3C)C(C)C2)c(F)cc2c(=O)c(C(=O)O)cn(C3CC3)c12 (stereo not drawn) | criterion not met
* O=C(O)c1cn(CCF)c2c(F)c(N3CCN(CC(O)Cn4cc([N+](=O)[O-])nc4Cl)CC3)c(F)cc2c1=O (stereo not drawn) | criterion not met

Next up:
Ask | Dear reviewer, please state whether COc1c(N2CCCC(N(C)CC(O)Cn3cc([N+](=O)[O-])nc3Cl)C2)c(F)cc2c(=O)c(C(=O)O)cn(C3CC3)c12 (stereo not drawn) has MIC strictly beneath 0.2 µg/mL.
Reply | criterion not met
